# MEASURED TARGET: human GIP receptor (Homo sapiens, UniProt P48546)
# Construct: expressed in transfected cells; host or cells: Chinese hamster ovary (CHO)
# Sequence (P48546 22-466): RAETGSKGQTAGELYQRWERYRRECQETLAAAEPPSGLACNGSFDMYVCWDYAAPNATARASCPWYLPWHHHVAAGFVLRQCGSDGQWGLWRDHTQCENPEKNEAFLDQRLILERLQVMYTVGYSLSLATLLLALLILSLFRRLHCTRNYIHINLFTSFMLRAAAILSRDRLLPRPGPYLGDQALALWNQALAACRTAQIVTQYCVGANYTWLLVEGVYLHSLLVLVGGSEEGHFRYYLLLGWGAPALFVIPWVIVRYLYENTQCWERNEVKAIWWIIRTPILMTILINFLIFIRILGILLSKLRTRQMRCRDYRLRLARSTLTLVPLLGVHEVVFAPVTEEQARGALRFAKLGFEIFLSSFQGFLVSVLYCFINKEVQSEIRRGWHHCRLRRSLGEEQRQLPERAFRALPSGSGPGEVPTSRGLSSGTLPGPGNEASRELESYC
# ASSAY: In vitro activity (cAMP accumulation, LANCE cAMP kit) in CHO cells expressing human GIP receptor
# Format: cell-based
# STATED CONDITIONS: long-acting conjugate, relative potency from cAMP EC50 compared to human GIP
Bridges are numbered along the chain shown (N, C = ends). Where no end group is shown, it is not given here. [ ]: non-standard residue; d: D form. Aib = CC(C)(N)C(=O)O
Parameter: In vitro activity relative to native peptide (%) vs. GIP. Scope: all listed entries.
PROPERTY NAME: In vitro activity relative to native peptide (%) vs. GIP

{"columns": ["SUBSTANCE", "UNIT OF MEASUREMENT", "MEASURED VALUE"],
 "data": [
  ["21 (Y[Aib]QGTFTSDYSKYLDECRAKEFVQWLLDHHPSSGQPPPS; bridge 16-20) [compound 21]", "%", 0.2],
  ["77 (Y[Aib]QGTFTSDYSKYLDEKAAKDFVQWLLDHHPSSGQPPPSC; bridge 16-20) [compound 77]", "%", 6.6],
  ["22 (Y[Aib]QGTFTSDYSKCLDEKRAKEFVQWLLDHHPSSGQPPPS; bridge 16-20) [compound 22]", "%", 0.5],
  ["50 (H[Aib]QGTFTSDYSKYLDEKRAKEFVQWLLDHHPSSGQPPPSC; bridge 16-20) [compound 50]", "%", 0.7],
  ["42 (Y[Aib]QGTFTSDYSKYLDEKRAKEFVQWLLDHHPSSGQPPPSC; bridge 16-20) [compound 42]", "%", 1.2],
  ["43 (Y[Aib]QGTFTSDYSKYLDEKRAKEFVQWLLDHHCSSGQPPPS; bridge 16-20) [compound 43]", "%", 0.6],
  ["96 (Y[Aib]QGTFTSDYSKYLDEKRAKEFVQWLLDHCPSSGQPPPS; bridge 16-20) [compound 96]", "%", 0.3]
]}
